Listing of recorded abundance fitness by entry.
B1: Retinoic acid receptor RXR-alpha, residues 132 to 208; numbered along this chain, P19793 (parent)
chain: KHICAICGDRSSGKHYGVYSCEGCKGFFKRTVRKDLTYTCRDNKDCLIDKRQRNRCQYCRYQKCLAMGMKREAVQEE

variants of: B1; test: abundance fitness (aPCA) (normalised: wild type 0, dead -1); higher = more abundant; growth selection in yeast, the domain comes from the species named; details: Homo sapiens

sequence.data	abundance fitness
KHICAICGDRSSGKHYGVHSCEGCKGFFKRTVRKDLTYTCRDNKDCLIDKRQRNRCQYCRYQKCLAMGMKREAVQEE [Y19H]	-0.068
KLICAICGDRSSGKHYGVYSCEGCKGFFKRTVRKDLTYTCRDNKDCLIDKRQRNRCQYCRYQKCLAMGMKREAVQEE [H2L]	-0.041
KHICAICGDRSHGKHYGVYSCEGCKGFFKRTVRKDLTYTCRDNKDCLIDKRQRNRCQYCRYQKCLAMGMKREAVQEE [S12H]	-0.131
KHICAICGDRSSGKHYGVYSCEGCKGFFKRTERKDLTYTCRDNKDCLIDKRQRNRCQYCRYQKCLAMGMKREAVQEE [V32E]	0.026
KHICAICGDRSSGKHYGVYSCEGCKGFFKRTVRKDLTYTCNDNKDCLIDKRQRNRCQYCRYQKCLAMGMKREAVQEE [R41N]	-0.05
KHICAACGDRSSGKHYGVYSCEGCKGFFKRTVRKDLTYTCRDNKDCLIDKRQRNRCQYCRYQKCLAMGMKREAVQEE [I6A]	-0.145
KHICAICGDRSSGKHSGVYSCEGCKGFFKRTVRKDLTYTCRDNKDCLIDKRQRNRCQYCRYQKCLAMGMKREAVQEE [Y16S]	0.014
KHICAICGDRSSGKHYGVYSCEGCKGFFKRTHRKDLTYTCRDNKDCLIDKRQRNRCQYCRYQKCLAMGMKREAVQEE [V32H]	-0.064
KHICAICGDRSSGKHYGVYSCEKCKGFFKRTVRKDLTYTCRDNKDCLIDKRQRNRCQYCRYQKCLAMGMKREAVQEE [G23K]	-0.128
KHICAICGDRSSGKHYGVYSCEGCKGFCKRTVRKDLTYTCRDNKDCLIDKRQRNRCQYCRYQKCLAMGMKREAVQEE [F28C]	-0.753

Q. Query abundance fitness for KHICAICGDRSSGKHYGVYECEGCKGFFKRTVRKDLTYTCRDNKDCLIDKRQRNRCQYCRYQKCLAMGMKREAVQEE [S20E]
A. -0.202

Data provenance is the Human Domainome abundance scans (Beltran et al. 2025).
